biological target: T1, succinyl-L-Ala-L-Ala-L-Pro-L-Phe-p-nitroanilide (SEQ ID NO: 1)
T1 chain: AAPF
So I've got a bunch of proteins here, and I need their kcat pH 10 (% half-life of wild-type) (% of wild-type) values.

wild-type subtilisin of Bacillus lentus (SEQ ID NO: 2) (protein) AQSVPWGISRVQAPAAHNRGLTGSGVKVAVLDTGISTHPDLNIRGGASFVPGEPSTQDGNGHGTHVAGTIAALNNSIGVLGVAPSAELYAVKVLGASGSGSVSSIAQGLEWAGNNGMHVANLSLGSPSPSATLEQAVNSATSRGVLVVAASGNSGAGSISYPARYANAMAVGATDQNNNRASFSQYGAGLDIVAPGVNVQSTYPGSTYASLNGTSMATPHVAGAAALVKQKNPSWSNVQIRNHLKNTATSLGSTNLYGSGLVNAEAATR : 100

Here's the next entry for you.
Qu. For the protein shown here, N74D/S99G/V102W/S126G/N198A/N212S/T254P (variant of sequence SEQ ID NO: 5) (protein) AQSVPWGISRVQAPAAHNRGLTGSGVKVAVLDTGISTHPDLNIRGGASFVPGEPSTQDGNGHGTHVAGTIAALDNSIGVLGVAPSAELYAVKVLGASGGGSWSSIAQGLEWAGNNGMHVANLSLGGPSPSATLEQAVNSATSRGVLVVAASGNSGAGSISYPARYANAMAVGATDQNNNRASFSQYGAGLDIVAPGVAVQSTYPGSTYASLSGTSMATPHVAGAAALVKQKNPSWSNVQIRNHLKNTATSLGSPNLYGSGLVNAEAATR , give the reported kcat pH 10 (% half-life of wild-type) (% of wild-type).
Ans. 723
